The measurements presented in this section are drawn from ChEMBL document CHEMBL1287759.

System: MDA-MB-231
Assay: Anticancer activity against human MDA-MB-231 assessed as inhibition of cell growth by MTT assay
Format: functional, cell-based
pIC50: −log10 of the molar value.
experimentalReadout: pIC50

// solved cases for pIC50 follow
>>> assayresult("COc1ccc2cc(-c3ccc(OC(F)(F)F)cc3)c(=O)oc2c1CCC(C)C")
6.51
>>> assayresult("COc1ccc2cc(-c3ccc(C(F)(F)F)cc3)c(=O)oc2c1CCC(C)C")
4.42

P = CC(C)CCc1c(O)ccc2cc(-c3ccc(OC(F)(F)F)cc3)c(=O)oc12
Q = COc1ccc2cc(-c3ccc(F)c(F)c3)c(=O)oc2c1CCC(C)C
R = COc1ccc2cc(-c3ccc(O)cc3)c(=O)oc2c1CCC(C)C
Falling order of pIC50, please. Note for the reader: the ranking is given by listing the labels in the order requested.
R, P, Q
(R: 5.38, P: 5.13, Q: 4.47)

* * *

Below, each entry is listed with its recorded pIC50.
Test system: MDA-MB-231
Experiment: Anticancer activity against human MDA-MB-231 assessed as inhibition of cell growth by MTT assay
Format: functional, cell-based
pIC50: −log10 of the molar value.

// solved cases for pIC50 follow
>>> assayresult("COc1ccc2cc(-c3ccc(C)cc3)c(=O)oc2c1CCC(C)C")
"< 4.30"
>>> assayresult("COc1ccc2cc(-c3cccnc3)c(=O)oc2c1CCC(C)C")
"< 4.30"
>>> assayresult("COc1ccc2c(Oc3ccc4cc(-c5ccc(C(F)(F)F)cc5)c(=O)oc4c3CCC(C)C)cc(=O)oc2c1")
"< 4.30"

Write down pIC50 measured for item `COc1ccc2cc(-c3ccc(Cl)cc3)c(=O)oc2c1CCC(C)C`
5.28

Write down pIC50 measured for item `CC(C)CCc1c(Oc2cc(=O)oc3cc(O)ccc23)ccc2ccc(=O)oc12`
< 4.30

Write down pIC50 measured for item `COc1ccc2ccc(=O)oc2c1CC=C(C)C`
4.52
